Provide the reported pEC50 of each item.
molecular target: Cyclic nucleotide-gated channel alpha-2 (Rattus norvegicus); experiment: Activation of recombinant rat CNGA2 expressed in Xenopus laevis oocyte assessed as increase in current amplitude by patch-clamp electrophysiology method
Sequence (Q00195 whole entry): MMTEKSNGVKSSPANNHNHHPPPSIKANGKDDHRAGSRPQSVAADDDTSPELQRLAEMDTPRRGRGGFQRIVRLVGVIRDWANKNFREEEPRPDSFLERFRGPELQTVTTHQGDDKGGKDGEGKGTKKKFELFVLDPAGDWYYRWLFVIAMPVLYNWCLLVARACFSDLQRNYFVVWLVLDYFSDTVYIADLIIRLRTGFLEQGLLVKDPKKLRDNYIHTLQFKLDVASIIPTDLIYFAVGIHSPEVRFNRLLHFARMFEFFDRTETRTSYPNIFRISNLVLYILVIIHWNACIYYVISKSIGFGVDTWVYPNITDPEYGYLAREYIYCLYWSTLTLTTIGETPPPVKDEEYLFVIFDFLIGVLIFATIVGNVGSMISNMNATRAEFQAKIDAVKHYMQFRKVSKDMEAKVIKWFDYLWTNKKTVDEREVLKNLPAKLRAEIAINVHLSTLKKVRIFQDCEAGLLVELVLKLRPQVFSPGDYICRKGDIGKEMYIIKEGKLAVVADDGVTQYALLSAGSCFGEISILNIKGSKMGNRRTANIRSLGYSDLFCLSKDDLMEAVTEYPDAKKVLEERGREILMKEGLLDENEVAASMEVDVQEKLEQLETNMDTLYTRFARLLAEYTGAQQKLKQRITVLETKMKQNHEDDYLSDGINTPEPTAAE
The quantity pEC50 is defined as the negative base-10 logarithm of the molar concentration.

Incoming: Please report the measured pEC50 for Nc1ncnc2c1nc(Br)n2[C@@H]1O[C@@H]2COP(=O)(O)O[C@H]2[C@H]1O tested on Cyclic nucleotide-gated channel alpha-2 (Rattus norvegicus).
Outgoing: 4.81

Incoming: Please report the measured pEC50 for Nc1ncnc2c1ccn2[C@@H]1O[C@@H]2COP(=O)(O)O[C@H]2[C@H]1O tested on Cyclic nucleotide-gated channel alpha-2 (Rattus norvegicus).
Outgoing: 5.68

Incoming: Please report the measured pEC50 for Nc1ncnc2c1cc(Br)n2[C@@H]1O[C@@H]2COP(=O)(O)O[C@H]2[C@H]1O tested on Cyclic nucleotide-gated channel alpha-2 (Rattus norvegicus).
Outgoing: 5.19

Incoming: Please report the measured pEC50 for Nc1ncnc2c1c(Br)cn2[C@@H]1O[C@@H]2COP(=O)(O)O[C@H]2[C@H]1O tested on Cyclic nucleotide-gated channel alpha-2 (Rattus norvegicus).
Outgoing: 6.27

---

biological target: cAMP-dependent protein kinase type I-alpha regulatory subunit (Homo sapiens) (UniProt P10644)
Sequence (P10644 whole entry): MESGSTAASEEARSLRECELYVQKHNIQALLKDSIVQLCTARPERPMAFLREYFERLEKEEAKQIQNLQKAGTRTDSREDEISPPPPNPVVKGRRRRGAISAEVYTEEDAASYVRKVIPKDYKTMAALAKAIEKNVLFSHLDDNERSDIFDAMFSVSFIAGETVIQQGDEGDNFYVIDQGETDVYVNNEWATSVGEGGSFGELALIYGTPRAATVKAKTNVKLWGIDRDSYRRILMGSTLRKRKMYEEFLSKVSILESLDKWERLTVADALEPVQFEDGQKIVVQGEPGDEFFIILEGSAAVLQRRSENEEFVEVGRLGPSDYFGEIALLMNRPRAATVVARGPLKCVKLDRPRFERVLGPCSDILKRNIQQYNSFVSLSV
Provide the reported Kact of each item.
Please make sure the unit comes right after the number.

Incoming: Consider the molecule Nc1ncnc2c1cc(Br)n2[C@@H]1O[C@@H]2COP(=O)(O)O[C@H]2[C@H]1O and give its recorded Kact.
Outgoing: 0.043 µM

Incoming: Consider the molecule Nc1ncnc2c1ccn2[C@@H]1O[C@@H]2COP(=O)(O)O[C@H]2[C@H]1O and give its recorded Kact.
Outgoing: 0.199 µM

Incoming: Consider the molecule Nc1ncnc2c1nc(Br)n2[C@@H]1O[C@@H]2COP(=O)(O)O[C@H]2[C@H]1O and give its recorded Kact.
Outgoing: 0.056 µM

Incoming: Consider the molecule Nc1ncnc2c1c(Br)cn2[C@@H]1O[C@@H]2COP(=O)(O)O[C@H]2[C@H]1O and give its recorded Kact.
Outgoing: 0.028 µM

---

molecular target: cAMP-dependent protein kinase type II-alpha regulatory subunit (Homo sapiens) (UniProt P13861)
Sequence (P13861 whole entry): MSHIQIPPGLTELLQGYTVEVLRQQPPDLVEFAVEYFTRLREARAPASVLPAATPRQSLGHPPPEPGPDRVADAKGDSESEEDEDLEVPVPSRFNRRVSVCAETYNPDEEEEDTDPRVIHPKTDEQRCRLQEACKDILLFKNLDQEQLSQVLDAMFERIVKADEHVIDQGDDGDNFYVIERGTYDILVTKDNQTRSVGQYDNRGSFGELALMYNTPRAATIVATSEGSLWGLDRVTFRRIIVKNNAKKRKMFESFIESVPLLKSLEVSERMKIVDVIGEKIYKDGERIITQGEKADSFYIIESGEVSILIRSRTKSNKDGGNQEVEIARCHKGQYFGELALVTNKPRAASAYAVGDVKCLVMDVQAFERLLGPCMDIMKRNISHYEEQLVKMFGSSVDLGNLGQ
Measure name: Kact (µM)
// units = µM; emit number, no label

Incoming: Consider the compound Nc1ncnc2c1nc(Br)n2[C@@H]1O[C@@H]2COP(=O)(O)O[C@H]2[C@H]1O and give its recorded Kact.
Outgoing: 0.088

Incoming: Consider the compound Nc1ncnc2c1c(Br)cn2[C@@H]1O[C@@H]2COP(=O)(O)O[C@H]2[C@H]1O and give its recorded Kact.
Outgoing: 0.097

Incoming: Consider the compound Nc1ncnc2c1cc(Br)n2[C@@H]1O[C@@H]2COP(=O)(O)O[C@H]2[C@H]1O and give its recorded Kact.
Outgoing: 0.072

Incoming: Consider the compound Nc1ncnc2c1ccn2[C@@H]1O[C@@H]2COP(=O)(O)O[C@H]2[C@H]1O and give its recorded Kact.
Outgoing: 0.238

---

target: CNGA2/CNGA4/CNGB1 (Rattus norvegicus, UniProt O35788+Q00195+Q64359); assay: Activation of recombinant rat CNGA2/CNGA4/CNGB1b heterotetramer expressed in Xenopus laevis oocyte assessed as increase in current amplitude by patch-clamp electrophysiology method
Sequence (Q00195 whole entry): as the sequence (Q00195 whole entry) above
Sequence (Q64359 whole entry): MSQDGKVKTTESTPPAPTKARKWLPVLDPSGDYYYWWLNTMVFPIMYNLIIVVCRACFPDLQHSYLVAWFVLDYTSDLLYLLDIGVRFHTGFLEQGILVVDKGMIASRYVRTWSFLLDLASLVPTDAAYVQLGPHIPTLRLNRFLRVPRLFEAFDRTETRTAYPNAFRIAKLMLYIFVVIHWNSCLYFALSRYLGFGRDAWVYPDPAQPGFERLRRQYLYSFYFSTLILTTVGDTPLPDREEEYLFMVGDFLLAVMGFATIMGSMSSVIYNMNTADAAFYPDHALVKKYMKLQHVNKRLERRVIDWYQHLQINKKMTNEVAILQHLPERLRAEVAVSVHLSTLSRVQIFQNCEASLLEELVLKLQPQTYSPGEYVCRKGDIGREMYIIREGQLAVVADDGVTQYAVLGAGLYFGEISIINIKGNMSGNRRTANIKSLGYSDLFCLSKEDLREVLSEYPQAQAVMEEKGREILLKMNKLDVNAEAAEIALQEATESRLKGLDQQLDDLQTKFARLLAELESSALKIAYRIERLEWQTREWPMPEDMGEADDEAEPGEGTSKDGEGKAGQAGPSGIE
Sequence (O35788 whole entry): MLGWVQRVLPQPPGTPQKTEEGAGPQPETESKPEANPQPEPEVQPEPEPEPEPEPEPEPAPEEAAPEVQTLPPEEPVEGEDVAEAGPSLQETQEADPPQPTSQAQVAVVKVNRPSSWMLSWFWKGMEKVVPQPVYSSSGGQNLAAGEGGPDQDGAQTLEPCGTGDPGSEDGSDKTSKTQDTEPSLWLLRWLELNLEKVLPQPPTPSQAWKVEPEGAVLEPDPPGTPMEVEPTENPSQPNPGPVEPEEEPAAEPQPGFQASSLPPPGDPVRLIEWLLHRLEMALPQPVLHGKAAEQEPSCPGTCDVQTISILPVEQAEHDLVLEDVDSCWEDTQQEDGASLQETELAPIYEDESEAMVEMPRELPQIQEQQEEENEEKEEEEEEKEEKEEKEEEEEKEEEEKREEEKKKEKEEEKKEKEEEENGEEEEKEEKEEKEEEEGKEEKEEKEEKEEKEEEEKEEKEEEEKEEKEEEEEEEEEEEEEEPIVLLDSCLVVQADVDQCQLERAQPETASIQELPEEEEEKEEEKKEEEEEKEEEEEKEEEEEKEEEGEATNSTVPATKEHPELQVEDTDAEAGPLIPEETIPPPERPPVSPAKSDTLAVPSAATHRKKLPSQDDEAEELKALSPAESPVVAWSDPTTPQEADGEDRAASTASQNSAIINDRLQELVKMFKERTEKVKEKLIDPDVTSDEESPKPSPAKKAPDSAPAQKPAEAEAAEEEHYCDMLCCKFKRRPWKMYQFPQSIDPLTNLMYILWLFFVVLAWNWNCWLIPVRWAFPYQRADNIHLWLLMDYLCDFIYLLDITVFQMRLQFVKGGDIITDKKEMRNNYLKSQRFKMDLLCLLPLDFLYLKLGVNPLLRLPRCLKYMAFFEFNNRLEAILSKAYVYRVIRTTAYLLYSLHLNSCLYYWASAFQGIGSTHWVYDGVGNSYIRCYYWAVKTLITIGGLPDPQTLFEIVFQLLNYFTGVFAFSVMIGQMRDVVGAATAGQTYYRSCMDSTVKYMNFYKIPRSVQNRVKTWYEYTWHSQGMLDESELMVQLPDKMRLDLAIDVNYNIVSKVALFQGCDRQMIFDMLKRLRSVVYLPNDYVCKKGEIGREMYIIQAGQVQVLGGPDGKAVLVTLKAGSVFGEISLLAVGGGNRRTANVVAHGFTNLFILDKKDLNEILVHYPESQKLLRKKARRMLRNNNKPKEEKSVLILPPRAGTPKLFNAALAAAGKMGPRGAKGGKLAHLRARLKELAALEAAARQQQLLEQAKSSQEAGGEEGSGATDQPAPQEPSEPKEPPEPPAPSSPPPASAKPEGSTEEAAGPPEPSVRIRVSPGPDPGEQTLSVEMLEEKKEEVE
Measure name: pEC50
The quantity pEC50 is defined as the negative base-10 logarithm of the molar concentration.

Incoming: Consider the compound Nc1ncnc2c1cc(Br)n2[C@@H]1O[C@@H]2COP(=O)(O)O[C@H]2[C@H]1O and give its recorded pEC50.
Outgoing: 6.20

Incoming: Consider the compound Nc1ncnc2c1ccn2[C@@H]1O[C@@H]2COP(=O)(O)O[C@H]2[C@H]1O and give its recorded pEC50.
Outgoing: 6.44

Incoming: Consider the compound Nc1ncnc2c1c(Br)cn2[C@@H]1O[C@@H]2COP(=O)(O)O[C@H]2[C@H]1O and give its recorded pEC50.
Outgoing: 6.92

Incoming: Consider the compound Nc1ncnc2c1nc(Br)n2[C@@H]1O[C@@H]2COP(=O)(O)O[C@H]2[C@H]1O and give its recorded pEC50.
Outgoing: 5.80
